Tested on: HepG2
PROTOCOL_TEXT: MTT antiproliferative assay, HepG2
Format: cell-based
CONDITIONS_USED: Homo sapiens, HepG2, 72 h, read-out: IC50 values HepG2
pIC50: −log10 of the molar value.
Param threshold (5) applies to pIC50; output Met when value >= threshold, Not met when value < threshold.

# count of solved cases: 5
MOLECULE	LABEL_CLASS
N=c1c2c(ncn1N)OC1=C(C(=O)CCC1)C2c1cccs1 (centres unmarked) [Compound 3]	Met
COc1cccc2c1C(=O)c1c(O)c3c(c(O)c1C2=O)C[C@@](O)(C(=O)CO)C[C@@H]3O[C@H]1C[C@H](N)[C@H](O)[C@H](C)O1 [doxorubicin, reference compound]	Met
CCO/C=N/C1=C(C#N)C(c2cccs2)C2=C(CCCC2=O)O1 (centres unmarked) [Compound 2]	Not met
N#CC1=C(N)OC2=C(C(=O)CCC2)C1c1cccs1 (centres unmarked) [Compound 1]	Not met
N#CCc1nc(N)c2c(n1)OC1=C(C(=O)CCC1)C2c1cccs1 (centres unmarked) [Compound 11]	Not met

Exercise: Check the entry CC(=O)N(C(C)=O)C1=C(C#N)C(c2cccs2)C2=C(CCCC2=O)O1 (centres unmarked) [Compound 17] : does pIC50 equal or exceed 5?
Solution: Not met

Exercise: Check the entry NC(=S)Cc1nc(N)c2c(n1)OC1=C(C(=O)CCC1)C2c1cccs1 (centres unmarked) [Compound 13] : does pIC50 equal or exceed 5?
Solution: Not met

====

Test system: A549
PROTOCOL_TEXT: MTT antiproliferative assay, A549
Format: cell-based
CONDITIONS_USED: Homo sapiens, A549, 72 h, read-out: IC50 values A549
# IC50 annotations
Number in µM, nothing else.

COMPOUND	IC50 / µM
N=c1c2c(nc(-c3ccccc3)n1N)OC1=C(C(=O)CCC1)C2c1cccs1 (stereo not shown) [Compound 19]	14.3
NC(=S)Cc1nc(N)c2c(n1)OC1=C(C(=O)CCC1)C2c1cccs1 (stereo not shown) [Compound 13]	19.2
Nc1c2c(nc(=S)n1-c1ccccc1)OC1=C(C(=O)CCC1)C2c1cccs1 (stereo not shown) [Compound 7]	7.28

Entry COc1cccc2c1C(=O)c1c(O)c3c(c(O)c1C2=O)C[C@@](O)(C(=O)CO)C[C@@H]3O[C@H]1C[C@H](N)[C@H](O)[C@H](C)O1 [doxorubicin, reference compound] ; IC50 = 2.22

Entry CCO/C=N/C1=C(C#N)C(c2cccs2)C2=C(CCCC2=O)O1 (stereo not shown) [Compound 2] ; IC50 = 29.9

Entry N=c1c2c(ncn1N)OC1=C(C(=O)CCC1)C2c1cccs1 (stereo not shown) [Compound 3] ; IC50 = 1.87

Entry N#CC1=C(N)OC2=C(C(=O)CCC2)C1c1cccs1 (stereo not shown) [Compound 1] ; IC50 = 36.3

====

System: HepG2
PROTOCOL_TEXT: MTT antiproliferative assay, HepG2
Type: cell-based
CONDITIONS_USED: Homo sapiens, HepG2, 72 h, read-out: IC50 values HepG2
# pIC50 annotations
Keep in mind that pIC50 stands for -log10 of concentration in molar terms.

Example entries begin here.
COMPOUND	STUDY_TARGET	MEASURED_RESULT
Nc1c2c(nc(=S)n1-c1ccccc1)OC1=C(C(=O)CCC1)C2c1cccs1 (centres unmarked)	HepG2	5.20
CCOC(=O)NC1=C(C#N)C(c2cccs2)C2=C(CCCC2=O)O1 (centres unmarked)	HepG2	4.43
O=C1CCCC2=C1C(c1cccs1)C1=C(NC(=O)N3CCN=C13)O2 (centres unmarked)	HepG2	4.72

Entry Nc1nc(=S)[nH]c2c1C(c1cccs1)C1=C(CCCC1=O)O2 (centres unmarked) ; pIC50 = 4.75

Entry N=c1c2c(nc(-c3ccccc3)n1N)OC1=C(C(=O)CCC1)C2c1cccs1 (centres unmarked) ; pIC50 = 4.88

====

Test system: A549
PROTOCOL_TEXT: MTT antiproliferative assay, A549
Type: cell-based
CONDITIONS_USED: Homo sapiens, A549, 72 h, read-out: IC50 values A549
MEASUREMENT_NAME: pIC50
Keep in mind that pIC50 stands for -log10 of concentration in molar terms.

Example entries begin here.
COMPOUND	pIC50
CC(=O)N(C(C)=O)C1=C(C#N)C(c2cccs2)C2=C(CCCC2=O)O1 (stereo not drawn) [Compound 17]	4.61
CCOC(=O)NC1=C(C#N)C(c2cccs2)C2=C(CCCC2=O)O1 (stereo not drawn) [Compound 14]	4.39
Nc1nc(=S)[nH]c2c1C(c1cccs1)C1=C(CCCC1=O)O2 (stereo not drawn) [Compound 4b]	4.77
Nc1nc(=O)[nH]c2c1C(c1cccs1)C1=C(CCCC1=O)O2 (stereo not drawn) [Compound 4a]	4.83
O=C1CCCC2=C1C(c1cccs1)C1=C(NC(=O)N3CCN=C13)O2 (stereo not drawn) [Compound 15]	4.72

Entry N#CCc1nc(N)c2c(n1)OC1=C(C(=O)CCC1)C2c1cccs1 (stereo not drawn) [Compound 11] ; pIC50 = 4.30

Origin of values: paper PMC10720285
